test system: P12-Ichikawa; assay: cell viability relative to DMSO control; higher = less cytotoxic; details: HPLM + 10% dialyzed FBS; 48 h; 5.12 µM
The label true (1) is reserved for cell viability strictly under 90%; false (0) covers values equal to or above it.

Use these answered entries as a reference point.
Cc1cccc(-c2[nH]c(C(C)(C)C)nc2-c2ccc3c(c2)OCO3)n1    false (0)
Oc1ccc(-c2ccc(-c3cc(Nc4cccc(CNC5CC5)c4)[nH]n3)cc2)c(O)c1    true (1)
CN1CCN(CCCN2c3ccccc3Sc3ccc(Cl)cc32)CC1.O=C(O)/C=C\C(=O)O.O=C(O)/C=C\C(=O)O    false (0)
C[C@@H](N)C1CC[C@@H](CC1)C(=O)NC2=CC=NC=C2 (stereo partly drawn)    false (0)
O=C(NCC1CCOCC1)c1cnc(Nc2ccc(Cl)cc2Cl)nc1C(F)(F)F    false (0)
CCOC(=O)N[C@@H]1CC[C@@H]2[C@@H](C1)C[C@H]1C(=O)O[C@H](C)[C@H]1[C@H]2/C=C/c1ccc(-c2cccc(F)c2)cn1    false (0)
CC(C)CC(N(C)C)C1(c2ccc(Cl)cc2)CCC1 (stereo not drawn)    true (1)
O=C1CCCC(=O)C1C(=O)c1ccc(C(F)(F)F)cc1[N+](=O)[O-]    false (0)
Cc1ccc(-c2cc(C(F)(F)F)nn2-c2ccc([S+](N)(=O)[O-])cc2)cc1    false (0)
CC(C)c1c(C(=O)Nc2ccccc2)c(-c2ccccc2)c(-c2ccc(F)cc2)n1CC[C@@H](O)C[C@@H](O)CC(=O)[O-]    true (1)

Next, consider the following molecule.
Query: Is cell viability strictly under 90% for the entry CC(C)(O)C(=O)Nc1ccc([N+](=O)[O-])c(C(F)(F)F)c1 ?
Result: true (1)
